- target under test: human Maxi K channel (BK channel), KCNMA1 (KCa1.1) and beta1 (KCNMB1) subunits (Homo sapiens, UniProt Q12791)
- Sequence (Q12791 1-1178 isoform Q12791-5): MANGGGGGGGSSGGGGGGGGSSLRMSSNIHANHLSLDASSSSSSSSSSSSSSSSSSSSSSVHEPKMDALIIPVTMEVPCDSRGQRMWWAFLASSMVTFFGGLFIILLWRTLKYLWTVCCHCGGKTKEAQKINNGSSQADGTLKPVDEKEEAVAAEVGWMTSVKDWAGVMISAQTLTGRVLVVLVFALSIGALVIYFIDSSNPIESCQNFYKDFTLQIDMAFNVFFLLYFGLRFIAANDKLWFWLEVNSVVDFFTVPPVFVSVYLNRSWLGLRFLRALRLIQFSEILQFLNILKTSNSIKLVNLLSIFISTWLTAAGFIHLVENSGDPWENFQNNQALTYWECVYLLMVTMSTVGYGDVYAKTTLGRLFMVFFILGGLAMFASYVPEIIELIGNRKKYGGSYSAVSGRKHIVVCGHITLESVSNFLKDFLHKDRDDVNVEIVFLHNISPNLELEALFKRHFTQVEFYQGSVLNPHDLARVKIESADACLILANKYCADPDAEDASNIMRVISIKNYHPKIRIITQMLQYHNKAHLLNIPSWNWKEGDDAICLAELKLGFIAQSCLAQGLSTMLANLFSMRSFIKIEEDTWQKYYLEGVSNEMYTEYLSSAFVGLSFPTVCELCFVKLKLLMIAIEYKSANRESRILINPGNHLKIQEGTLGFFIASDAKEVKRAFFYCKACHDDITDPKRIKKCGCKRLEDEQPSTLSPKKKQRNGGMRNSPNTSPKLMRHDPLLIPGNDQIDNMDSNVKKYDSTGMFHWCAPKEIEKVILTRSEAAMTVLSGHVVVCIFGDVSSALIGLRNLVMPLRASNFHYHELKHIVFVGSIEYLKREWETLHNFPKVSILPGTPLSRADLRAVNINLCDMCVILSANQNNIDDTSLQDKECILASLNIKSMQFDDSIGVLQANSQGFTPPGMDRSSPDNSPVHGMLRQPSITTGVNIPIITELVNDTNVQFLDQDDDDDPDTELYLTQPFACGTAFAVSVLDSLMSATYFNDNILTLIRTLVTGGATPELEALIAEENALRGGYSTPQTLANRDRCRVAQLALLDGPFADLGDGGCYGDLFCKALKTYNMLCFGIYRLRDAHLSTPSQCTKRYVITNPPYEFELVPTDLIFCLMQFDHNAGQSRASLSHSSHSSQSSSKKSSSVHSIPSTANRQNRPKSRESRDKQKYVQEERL
- Sequence (Q16558 whole entry partner): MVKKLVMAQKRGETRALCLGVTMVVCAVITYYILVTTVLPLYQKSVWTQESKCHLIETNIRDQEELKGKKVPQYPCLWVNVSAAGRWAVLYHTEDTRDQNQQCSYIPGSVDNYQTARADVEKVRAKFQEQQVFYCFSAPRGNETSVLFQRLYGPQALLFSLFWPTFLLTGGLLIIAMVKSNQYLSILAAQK
- experiment notes: Agonistic activity at the human Maxi K channel (BK channel), membrane potential (FLIPR) in transfected CHO K1 cells
- cond: membrane potential dye, 70 mM KCl
pEC50: −log10 of the molar value.
Please provide measured pEC50 for the entries that follow.

Use the examples below as a reference point.
**Query** What does the record list as pEC50 for O=C(Nc1cnc2c(-c3cccc(Cl)c3Cl)cccc2c1N1CCOCC1)C1CCCc2ccccc21 (stereo not shown) [Compound 19] ?
**Result** 5.00 to 6.00

**Query** Please answer likewise for Cc1c(NC(=O)c2cccc3ccccc23)cnc2c(-c3cccc(Cl)c3Cl)cccc12 [Compound 190]
**Result** < 4.52

**Query** Field entry: O=C(Nc1cnc2c(-c3cc(Cl)cc(Cl)c3)c(F)ccc2c1N1CCOCC1)c1cccc2ccccc12 [Compound 146]
**Result** 4.52 to 5.00

**Query** Next entry: CC(C)Oc1c(NC(=O)C2CCOc3ccccc32)cnc2c(-c3cccc(Cl)c3Cl)cccc12 (stereo not shown) [Compound 32]
**Result** < 4.52

**Query** Record: COc1c(NC(=O)C2CCCc3ccccc32)cnc2c(-c3cc(Cl)cc(Cl)c3)c(F)ccc12 (stereo not shown) [Compound 113]
**Result** < 4.52

**Query** Queued: COCCN(C)c1c(NC(=O)C2CCOc3ccccc32)cnc2c(-c3cccc(Cl)c3Cl)cccc12 (stereo not shown) [Compound 93]
**Result** < 4.52

**Query** Next up: CN(C)c1c(NC(=O)c2cccc3ccccc23)cnc2c(-c3cccc(Cl)c3Cl)c(F)ccc12 [Compound 150]
**Result** 4.52 to 5.00

**Query** Also need CCc1c(NC(=O)c2cccc3ccccc23)cnc2c(-c3cc(Cl)cc(Cl)c3)cccc12 [Compound 199] , thanks.
**Result** < 4.52

**Query** One more compound: O=C(Nc1cnc2c(-c3cccc(Cl)c3Cl)c(F)ccc2c1N1CCOCC1)C1CCCc2ccccc21 (stereo not shown) [Compound 121]
**Result** 5.00 to 6.00

**Query** Also, O=C(Nc1cnc2c(-c3cccc(Cl)c3Cl)cccc2c1N1CCOCC1)C1CCc2ccccc21 (stereo not shown) [Compound 20] please.
**Result** 5.00 to 6.00

Record pEC50 per entry; entries follow.
1. CCOc1c(NC(=O)C2CCc3ccccc32)cnc2c(-c3cccc(Cl)c3Cl)c(F)ccc12 (stereo not shown) [Compound 139]
2. O=C(Nc1cnc2c(-c3cccc(Cl)c3Cl)cccc2c1N1CCC(O)C1)C1CCOc2ccccc21 (stereo not shown) [Compound 37]

**Result**
< 4.52
4.52 to 5.00

For each entry beneath this line, provide reported pEC50.
1. Cc1c(NC(=O)C2CCCc3ccccc32)cnc2c(-c3cc(Cl)cc(Cl)c3)cccc12 (stereo not shown) [Compound 192]
2. CC(C)N(C)c1c(NC(=O)C2CCOc3ccccc32)cnc2c(-c3cccc(Cl)c3Cl)cccc12 (stereo not shown) [Compound 89]
3. O=C(Nc1cnc2c(-c3cc(Cl)cc(Cl)c3)c(F)ccc2c1N1CCOCC1)C1CCOc2ccccc21 (stereo not shown) [Compound 126]
4. Cc1ccc2c(N3CCOCC3)c(NC(=O)C3CCOc4ccccc43)cnc2c1-c1cc(Cl)cc(Cl)c1 (stereo not shown) [Compound 174]
5. CN(CCO)c1c(NC(=O)C2CCOc3ccccc32)cnc2c(-c3cccc(Cl)c3Cl)cccc12 (stereo not shown) [Compound 92]
6. C=C(C)c1c(NC(=O)c2cccc3ccccc23)cnc2c(-c3cc(Cl)cc(Cl)c3)cccc12 [Compound 200]

**Result**
1: < 4.52; 2: < 4.52; 3: < 4.52; 4: < 4.52; 5: < 4.52; 6: < 4.52

Report pEC50 for each item below.
1. CN(C)c1c(NC(=O)C2CCOc3ccccc32)cnc2c(-c3cc(F)cc(F)c3)cccc12 (stereo not shown) [Compound 38]
2. Cc1c(NC(=O)c2cccc3ccccc23)cnc2c(-c3cc(Cl)cc(Cl)c3)cccc12 [Compound 198]
3. Cc1c(NC(=O)c2ccnc3ccccc23)cnc2c(-c3cccc(Cl)c3Cl)cccc12 [Compound 106]
4. CN(C)c1c(NC(=O)Cc2ccccc2)cnc2c(-c3cc(Cl)cc(Cl)c3)cccc12 [Compound 3]
5. CCOc1c(NC(=O)C2CCc3ccccc32)cnc2c(-c3cccc(Cl)c3Cl)cccc12 (stereo not shown) [Compound 57]

**Result**
< 4.52
< 4.52
< 4.52
< 4.52
< 4.52

Look at each compound and report its pEC50.
1. CC(C)Oc1c(NC(=O)C2CCc3ccccc32)cnc2c(-c3cccc(Cl)c3Cl)c(F)ccc12 (stereo not shown) [Compound 142]
2. CN(C)c1c(NC(=O)[C@H]2CCCc3ccccc32)cnc2c(-c3cc(Cl)cc(Cl)c3)cccc12 [Compound 156]
3. CN(C)c1c(NC(=O)C2CCCc3ccccc32)cnc2c(-c3cc(Cl)cc(Cl)c3)c(F)ccc12 (stereo not shown) [Compound 115]
4. CCOc1c(NC(=O)c2cccc3ccccc23)cnc2c(-c3cccc(Cl)c3Cl)c(F)ccc12 [Compound 149]
5. COCCNc1c(NC(=O)C2CCCc3ccccc32)cnc2c(-c3cccc(Cl)c3Cl)cccc12 (stereo not shown) [Compound 101]
6. O=C(Nc1cnc2c(-c3cc(Cl)cc(Cl)c3)cccc2c1N1CCOCC1)C1CCOc2ccccc21 (stereo not shown) [Compound 7]
7. CN(C)c1c(NC(=O)C2CCc3ccccc32)cnc2c(-c3cccc(Cl)c3Cl)c(F)ccc12 (stereo not shown) [Compound 140]

**Result**
1: < 4.52; 2: < 4.52; 3: < 4.52; 4: < 4.52; 5: 4.52 to 5.00; 6: < 4.52; 7: 4.52 to 5.00

**Query** Quick check: pEC50 of CCOc1c(NC(=O)C2CCCc3ccccc32)cnc2c(-c3cccc(Cl)c3Cl)cccc12 (stereo not shown) [Compound 55] ?
**Result** < 4.52

----------
Task for the reader: assign each of the following molecules its reported EC50.
- target under test: Caenorhabditis elegans slo-1a (Caenorhabditis elegans, UniProt Q95V25)
- Sequence (Q95V25 whole entry): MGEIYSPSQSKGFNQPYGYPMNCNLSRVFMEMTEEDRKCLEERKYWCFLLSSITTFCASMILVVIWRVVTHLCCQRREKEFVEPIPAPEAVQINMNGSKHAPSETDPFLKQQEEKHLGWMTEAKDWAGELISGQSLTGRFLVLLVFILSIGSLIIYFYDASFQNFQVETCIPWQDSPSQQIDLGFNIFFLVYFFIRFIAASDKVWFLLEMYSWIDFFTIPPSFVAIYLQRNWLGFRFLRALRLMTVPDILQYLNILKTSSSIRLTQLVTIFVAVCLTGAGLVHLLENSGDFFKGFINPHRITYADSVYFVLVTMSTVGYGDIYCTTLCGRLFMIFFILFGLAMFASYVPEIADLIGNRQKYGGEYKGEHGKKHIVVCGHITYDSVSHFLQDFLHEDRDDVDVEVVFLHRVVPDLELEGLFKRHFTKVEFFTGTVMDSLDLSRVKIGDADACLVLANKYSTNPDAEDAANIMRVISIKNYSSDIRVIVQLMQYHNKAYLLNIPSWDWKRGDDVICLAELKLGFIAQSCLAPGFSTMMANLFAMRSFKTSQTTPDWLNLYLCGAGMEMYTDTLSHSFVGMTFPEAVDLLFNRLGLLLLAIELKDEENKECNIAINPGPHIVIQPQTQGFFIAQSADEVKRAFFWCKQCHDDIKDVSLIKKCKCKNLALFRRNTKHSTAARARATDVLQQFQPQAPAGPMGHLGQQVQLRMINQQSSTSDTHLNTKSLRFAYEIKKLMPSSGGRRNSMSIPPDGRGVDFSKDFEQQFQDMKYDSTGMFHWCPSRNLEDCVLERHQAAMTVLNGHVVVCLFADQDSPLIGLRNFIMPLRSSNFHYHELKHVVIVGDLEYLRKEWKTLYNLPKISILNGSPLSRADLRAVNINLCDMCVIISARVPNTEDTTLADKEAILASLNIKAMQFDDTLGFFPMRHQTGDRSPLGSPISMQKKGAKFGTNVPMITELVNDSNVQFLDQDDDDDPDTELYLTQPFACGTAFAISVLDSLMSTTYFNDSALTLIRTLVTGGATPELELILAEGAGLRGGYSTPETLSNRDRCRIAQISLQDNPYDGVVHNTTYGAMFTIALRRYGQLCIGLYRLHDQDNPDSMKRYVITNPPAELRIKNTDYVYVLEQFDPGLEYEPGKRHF
- experiment notes: Agonistic activity at C. elegans Slo-1a, membrane potential (FLIPR) in transfected CHO K1 cells
- cond: EC50 agonistic activity at C. elegans Slo-1a, membrane potential dye, 70 mM KCl

Please review the entries below; each comes with its answer.
**Query** Reported EC50 for CN(C)c1c(NC(=O)C2CCCc3ccccc32)cnc2c(-c3cccc(Cl)c3Cl)cccc12 (stereo not shown) : what is it?
**Result** < 1 µM

**Query** Now the same for CCOc1c(NC(=O)C2CCc3ccccc32)cnc2c(-c3cccc(Cl)c3Cl)cccc12 (stereo not shown)
**Result** < 1 µM

**Query** Could you do the same for CCc1c(NC(=O)C2CCOc3ccccc32)cnc2c(-c3cccc(Cl)c3Cl)cccc12 (stereo not shown) , please?
**Result** < 1 µM

In the following, a different molecule is considered.
**Query** Looking for the measured EC50 of O=C(Nc1cnc2c(-c3cc(Cl)cc(Cl)c3)cccc2c1N1CCOCC1)c1cccc2ccccc12 , can you help?
**Result** < 1 µM

----------
- target under test: Caenorhabditis elegans slo-1a (Caenorhabditis elegans)
- experiment notes: Agonistic activity at C. elegans Slo-1a, membrane potential (FLIPR) in transfected CHO K1 cells
- cond: EC50 agonistic activity at C. elegans Slo-1a, membrane potential dye, 70 mM KCl
pEC50: −log10 of the molar value.
property name: pEC50

Parameter requested: pEC50. Apply to each item below.
1. Cc1c(NC(=O)C2CCCc3ccccc32)cnc2c(-c3cc(Cl)cc(Cl)c3)cccc12 (centres unmarked) [Compound 192]
2. C=C(C)c1c(NC(=O)C2CCCc3ccccc32)cnc2c(-c3cccc(Cl)c3Cl)cccc12 (centres unmarked) [Compound 202]
3. CN(C)c1c(NC(=O)[C@H]2CCCc3ccccc32)cnc2c(-c3cc(Cl)cc(Cl)c3)c(Cl)ccc12 [Compound 186]
4. CCOc1c(NC(=O)C2CCCc3ccccc32)cnc2c(-c3cccc(Cl)c3Cl)cccc12 (centres unmarked) [Compound 55]
5. CN(C)c1c(NC(=O)C2CCCc3ccccc32)cnc2c(-c3cc(Cl)cc(Cl)c3)c(F)ccc12 (centres unmarked) [Compound 115]
6. O=C(Nc1cnc2c(-c3cc(Cl)cc(Cl)c3)cccc2c1N1CCOCC1)C1CCOc2ccccc21 (centres unmarked) [Compound 7]
7. CCOc1c(NC(=O)[C@H]2CCCc3ccccc32)cnc2c(-c3cccc(Cl)c3Cl)cccc12 [Compound 54]

**Result**
> 5.00
> 6.00
> 6.00
> 6.00
> 6.00
> 5.00
> 6.00

**Query** Field request: pEC50 | item: COCCN(C)c1c(NC(=O)C2CCCc3ccccc32)cnc2c(-c3cccc(Cl)c3Cl)cccc12 (centres unmarked) [Compound 103]
**Result** > 6.00

----------
- target under test: Caenorhabditis elegans slo-1a (Caenorhabditis elegans, UniProt Q95V25)
- experiment notes: Agonistic activity at C. elegans Slo-1a, membrane potential (FLIPR) in transfected CHO K1 cells
- cond: EC50 agonistic activity at C. elegans Slo-1a, membrane potential dye, 70 mM KCl
pEC50: −log10 of the molar value.
I'd appreciate it if you could supply pEC50 values for the items below.

**Query** Which value of pEC50 has been reported for Nc1c(NC(=O)C2CCOc3ccccc32)cnc2c(-c3cccc(Cl)c3Cl)cccc12 (stereo not shown) [Compound 84] in the records?
**Result** > 5.00

**Query** Moving on to the next molecule: CCc1c(NC(=O)[C@H]2CCCc3ccccc32)cnc2c(-c3cc(Cl)cc(Cl)c3)cccc12 [Compound 197]
**Result** > 6.00

**Query** Similarly, COc1cccc(C(C)C(=O)Nc2cnc3c(-c4cccc(Cl)c4Cl)cccc3c2N(C)C)c1 (stereo not shown) [Compound 29] ?
**Result** > 5.00

I have 6 molecules here; please give me pEC50 for each one.
1. Cc1cccc(CC(=O)Nc2cnc3c(-c4cccc(Cl)c4Cl)cccc3c2N(C)C)c1 [Compound 35]
2. CN(C)c1c(NC(=O)c2cccc3ccccc23)cnc2c(-c3cc(Cl)cc(Cl)c3)cccc12 [Compound 153]
3. O=C(Nc1cnc2c(-c3cc(Cl)cc(Cl)c3)cccc2c1N1CCOCC1)C1CCCc2ccccc21 (stereo not shown) [Compound 8]
4. CN(CCO)c1c(NC(=O)C2CCOc3ccccc32)cnc2c(-c3cccc(Cl)c3Cl)cccc12 (stereo not shown) [Compound 92]
5. CN(C)c1c(NC(=O)C2CCc3ccccc32)cnc2c(-c3cccc(Cl)c3Cl)c(F)ccc12 (stereo not shown) [Compound 140]
6. CN(C)c1cccc(CC(=O)Nc2cnc3c(-c4cccc(Cl)c4Cl)cccc3c2N(C)C)c1 [Compound 49]

**Result**
1. > 5.00
2. > 5.00
3. > 6.00
4. > 5.00
5. > 6.00
6. > 5.00

For every listed record, write down its pEC50.
1. O=C(Nc1cnc2c(-c3cccc(Cl)c3Cl)cccc2c1NCCO)C1CCOc2ccccc21 (stereo not shown) [Compound 90]
2. O=C(Nc1cnc2c(-c3cccc(Cl)c3Cl)cccc2c1N1CCC(O)C1)C1CCc2ccccc21 (stereo not shown) [Compound 45]
3. CCCc1c(NC(=O)c2cccc3ccccc23)cnc2c(-c3cccc(Cl)c3Cl)cccc12 [Compound 187]
4. O=C(Nc1cnc2c(-c3cc(Cl)cc(Cl)c3)c(F)ccc2c1N1CCOCC1)C1CCOc2ccccc21 (stereo not shown) [Compound 126]

**Result**
["> 5.00", "> 6.00", "> 6.00", "> 6.00"]

Below are 7 molecules. Give each one its pEC50.
1. CCc1c(NC(=O)C2CCOc3ccccc32)cnc2c(-c3cc(Cl)cc(Cl)c3)cccc12 (stereo not shown) [Compound 195]
2. CN(C)c1c(NC(=O)Cc2ccccc2)cnc2c(-c3cc(Cl)cc(Cl)c3)cccc12 [Compound 3]
3. CN(C)c1c(NC(=O)C2CCOc3ccccc32)cnc2c(-c3cccc(Cl)c3F)cccc12 (stereo not shown) [Compound 42]
4. CN(C)c1c(NC(=O)C2CCc3ccccc32)cnc2c(-c3cc(Cl)cc(Cl)c3)c(F)ccc12 (stereo not shown) [Compound 135]
5. O=C(Nc1cnc2c(-c3cccc(Cl)c3Cl)c(F)ccc2c1N1CCOCC1)C1CCCc2ccccc21 (stereo not shown) [Compound 121]
6. CCOc1c(NC(=O)C2CCc3ccccc32)cnc2c(-c3cccc(Cl)c3Cl)c(F)ccc12 (stereo not shown) [Compound 139]
7. COc1c(NC(=O)C2CCCc3ccccc32)cnc2c(-c3cc(Cl)cc(Cl)c3)c(F)ccc12 (stereo not shown) [Compound 113]

**Result**
1. > 6.00
2. > 5.00
3. > 6.00
4. > 6.00
5. > 6.00
6. > 6.00
7. > 6.00
